Biological target: hERG (KCNH2) (Homo sapiens, UniProt Q12809)
Sequence (Q12809 whole entry): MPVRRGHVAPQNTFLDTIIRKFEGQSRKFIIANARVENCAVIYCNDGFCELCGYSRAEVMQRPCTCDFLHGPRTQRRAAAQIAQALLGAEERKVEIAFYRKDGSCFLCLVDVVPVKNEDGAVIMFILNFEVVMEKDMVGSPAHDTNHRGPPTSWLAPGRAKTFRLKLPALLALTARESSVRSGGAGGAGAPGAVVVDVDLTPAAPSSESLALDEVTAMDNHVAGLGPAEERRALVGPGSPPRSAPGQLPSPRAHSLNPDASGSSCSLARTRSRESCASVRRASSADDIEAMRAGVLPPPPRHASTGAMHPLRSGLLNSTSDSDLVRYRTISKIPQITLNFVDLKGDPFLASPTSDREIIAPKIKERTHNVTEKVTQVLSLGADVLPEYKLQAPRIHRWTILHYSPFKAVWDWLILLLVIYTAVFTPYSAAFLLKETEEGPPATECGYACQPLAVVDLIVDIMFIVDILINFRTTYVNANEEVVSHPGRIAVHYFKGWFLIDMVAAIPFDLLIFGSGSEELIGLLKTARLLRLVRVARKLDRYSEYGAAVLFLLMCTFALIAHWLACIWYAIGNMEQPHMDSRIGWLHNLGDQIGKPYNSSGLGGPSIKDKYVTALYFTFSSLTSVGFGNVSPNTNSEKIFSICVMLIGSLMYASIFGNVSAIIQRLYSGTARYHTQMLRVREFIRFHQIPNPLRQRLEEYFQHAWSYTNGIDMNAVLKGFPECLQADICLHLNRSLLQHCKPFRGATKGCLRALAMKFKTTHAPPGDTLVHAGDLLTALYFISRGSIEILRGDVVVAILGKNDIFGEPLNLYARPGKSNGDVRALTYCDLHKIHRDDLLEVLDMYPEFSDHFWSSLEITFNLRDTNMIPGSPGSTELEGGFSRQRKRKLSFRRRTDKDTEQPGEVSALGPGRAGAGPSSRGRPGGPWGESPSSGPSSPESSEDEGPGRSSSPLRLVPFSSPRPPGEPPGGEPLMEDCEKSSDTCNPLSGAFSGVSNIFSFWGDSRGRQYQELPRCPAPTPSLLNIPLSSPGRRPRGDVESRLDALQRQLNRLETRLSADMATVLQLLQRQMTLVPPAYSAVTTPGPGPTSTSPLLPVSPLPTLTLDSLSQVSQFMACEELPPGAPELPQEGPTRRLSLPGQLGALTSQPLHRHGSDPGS
Experiment: Inhibition of human ERG current in HEK293 cells at 10 uM by patch clamp method relative to control
Assay type: cell-based
Details: HEK293 cells expressing human ERG
Test Readout: inhibition at 10 µM
The reply should consist of the numeric value with the unit placed after it.

Example results:
- Compound: "COc1cccc(-n2ncnc2C2=C(C)Nc3cc(C(F)(F)F)nn3[C@@H]2c2ccc(Cl)c(Cl)c2)n1"
  Assay Target: "hERG (KCNH2) (Homo sapiens, UniProt Q12809)"
  inhibition at 10 µM: "98%"
- Compound: "CC1=C(c2ncnn2C2CCC(C(F)(F)F)CC2)[C@@H](c2ccc(Cl)c(Cl)c2)n2nc(C(F)(F)F)cc2N1 (single isomer, unassigned; isomer 1)"
  Assay Target: "hERG (KCNH2) (Homo sapiens, UniProt Q12809)"
  inhibition at 10 µM: "38%"
- Compound: "CC1=C(c2ncnn2C(C)C)[C@@H](c2ccc(Cl)c(Cl)c2)n2nccc2N1"
  Assay Target: "hERG (KCNH2) (Homo sapiens, UniProt Q12809)"
  inhibition at 10 µM: "26%"

Give inhibition at 10 µM for CC1=C(c2ncnn2C2CCCCC2)[C@@H](c2ccc(Cl)c(Cl)c2)n2nccc2N1 87%

Give inhibition at 10 µM for CC1=C(c2ncnn2C2CCC2)[C@@H](c2ccc(Cl)c(Cl)c2)n2nc(C)cc2N1 40%

* * *

Target: Potassium voltage-gated channel subfamily A member 5 (Homo sapiens)
Sequence (P22460 whole entry): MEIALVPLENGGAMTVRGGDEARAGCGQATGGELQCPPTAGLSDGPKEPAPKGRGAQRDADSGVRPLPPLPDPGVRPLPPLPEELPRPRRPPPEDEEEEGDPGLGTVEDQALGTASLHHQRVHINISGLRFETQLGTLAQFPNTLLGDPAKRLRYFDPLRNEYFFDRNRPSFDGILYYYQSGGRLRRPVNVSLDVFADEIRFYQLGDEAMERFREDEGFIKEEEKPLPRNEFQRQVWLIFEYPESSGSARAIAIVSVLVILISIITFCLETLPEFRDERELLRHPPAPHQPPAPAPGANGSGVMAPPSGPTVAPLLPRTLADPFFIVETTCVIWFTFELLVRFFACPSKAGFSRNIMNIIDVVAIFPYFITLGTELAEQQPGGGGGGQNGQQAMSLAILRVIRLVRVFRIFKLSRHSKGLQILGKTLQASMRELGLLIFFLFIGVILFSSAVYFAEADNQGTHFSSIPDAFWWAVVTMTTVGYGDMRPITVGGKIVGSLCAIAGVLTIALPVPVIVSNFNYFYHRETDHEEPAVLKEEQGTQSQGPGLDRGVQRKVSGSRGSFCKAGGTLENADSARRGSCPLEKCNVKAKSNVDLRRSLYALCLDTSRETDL
Assay: Antagonist activity at human Kv1.5 expressed in mouse L929 cells assessed as inhibition of delayed rectifier repolarization current by patch clamp assay
Test Readout: pIC50
A value of pIC50 is the negative decimal logarithm of a concentration given in moles per litre.

- Cpd Smiles: "CC1=C(c2ncnn2-c2ccc(F)cc2)[C@@H](c2ccc(Cl)c(Cl)c2)n2nccc2N1"
  Test Readout: "pIC50"
  Measured Value: 6.94
- Cpd Smiles: "CC1=C(c2ncnn2CCCC(F)(F)F)[C@@H](c2ccc(Cl)c(Cl)c2)n2nccc2N1"
  Test Readout: "pIC50"
  Measured Value: 6.99
- Cpd Smiles: "CC1=C(c2nccn2C(C)C)[C@@H](c2ccc(Cl)c(Cl)c2)n2nc(C(F)(F)F)cc2N1"
  Test Readout: "pIC50"
  Measured Value: 6.69
- Cpd Smiles: "CC1=C(c2ncnn2-c2cccc(C)n2)[C@@H](c2ccc(Cl)c(Cl)c2)n2nc(C(F)(F)F)cc2N1"
  Test Readout: "pIC50"
  Measured Value: 6.68

Field: next compound
Give pIC50 for CC1=C(c2ncnn2-c2ccccc2F)[C@@H](c2ccc(Cl)c(Cl)c2)n2nccc2N1 7.13
